PROTOCOL DETAILS: yeast growth modulation, basal conditions, primary screen, YJM789 clinical isolate, OD600, 24 h (AID 1089);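 note: growth of clinical yeast isolate S. cerevisiae YJM 789 seeded 1000 cells per well; test concentration not given here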
TEST SETTINGS: S. cerevisiae YJM789 growth, higher = more signal, called active from +8 up or from −8 down
Would you mind labelling by z-score? At or over -0.1 is True, under is False.

COMPOUND: CCOC(=O)[C@H](Cc1ccccc1)NC(=O)CCC1CC(OC(=O)NCCc2ccc(F)cc2)CC2(CCCC(COC(=O)NCCOc3ccccc3)O2)O1 (stereo not given in full)
CAT: True
//
COMPOUND: CC(C)[C@@H](OCc1ccccc1)[C@H](C)C=NOC[C@@H](O)[C@H]1O[C@@H]2OC(C)(C)O[C@@H]2[C@H]1O
CAT: True
//
COMPOUND: COC(=O)CC=C[C@@H](C)[C@@H](C=NOC(C)CN1CCCCc2nc(C)c(C)cc21)NS(=O)(=O)c1ccc(C)cc1 (stereo not given in full)
CAT: False
//
COMPOUND: COC(=O)[C@H](C)NC(=O)CCC1CC(OC(=O)NCc2cccc3ccccc23)CC2(CCCC(COC(=O)NCCC(C)C)O2)O1 (stereo not given in full)
CAT: False
//
COMPOUND: COc1ccc(COC(=O)NN=C2C[C@@H](O)[C@@H](O)[C@@H]3[C@@H]4C(=O)N([C@@H](C)c5ccccc5)C(=O)[C@@H]4CC[C@H]23)cc1
CAT: False
//
COMPOUND: CCOC(=O)[C@H](Cc1ccccc1)NC(=O)CCC1CC(OC(=O)NCc2cccc3ccccc23)CC2(CCCC(COC(=O)NCCc3ccccc3OC)O2)O1 (stereo not given in full)
CAT: True
//
COMPOUND: CC(=O)OC[C@H]1O[C@H](CC=NOC(C)CN2CCCCc3nc(C)c(C)cc32)C=C[C@@H]1OC(C)=O (stereo not given in full)
CAT: False
//
COMPOUND: CCN(CC)CC(O)CN1CCCCc2nc(C)c(C)cc21 (stereo not given)
CAT: False
//
COMPOUND: COc1ccc(O[C@H]2C=C[C@@H](C#Cc3ccccc3)O[C@@H]2CO)cc1
CAT: False
//
COMPOUND: C[C@@H]1C=CCC(=O)OC[C@H](C)C(=O)N[C@@H](Cc2ccccc2)C(=O)OC1
CAT: True
//
COMPOUND: CC(C)=CCCC(C)=CCON=C1C[C@@H](O)[C@@H](O)[C@@H]2[C@@H]3C(=O)N(c4cccc(Oc5ccccc5)c4)C(=O)[C@@H]3CC[C@H]12
CAT: True
//
COMPOUND: CO[C@H]1COC(=O)[C@H](C)COC(=O)[C@H](C)NC(=O)CC=C[C@H]1C
CAT: False
//
COMPOUND: CCOC(=O)CCN1C(=O)[C@H]2[C@H]3[C@H](O)[C@H](O)CC(=NOCC=C(C)CCC=C(C)C)[C@H]3CC[C@H]2C1=O
CAT: True
//
COMPOUND: CCCNC(=O)OC[C@H]1O[C@H](CCON=C2C[C@@H](O)[C@@H](O)[C@@H]3[C@@H]4C(=O)N(CC)C(=O)[C@@H]4CC[C@@H]23)C=C[C@@H]1Oc1ccc(OC)cc1
CAT: False
//
COMPOUND: CC(C)=NO[C@H](C)c1cn([C@@H]2COC[C@H]2O)nn1
CAT: False
//
COMPOUND: COC(=O)[C@H](CCSC)NC(=O)CC=C[C@@H](C)CO
CAT: True
//
COMPOUND: Cc1cc(C)c(-c2cc([C@H](C)ON=C[C@@H](C)[C@H](OCc3ccccc3)C(C)C)on2)c(C)c1
CAT: True
//
COMPOUND: CCOC(=O)CCN1C(=O)[C@H]2[C@H]3[C@H](O)[C@H](O)CC(=NNC(=O)OCc4ccccc4)[C@H]3CC[C@H]2C1=O
CAT: False
//
COMPOUND: CO[C@@H](C1CCCCC1)[C@@H](C)[C@H](OCc1cccc(Br)c1)[C@@H](C)CO
CAT: False
//
COMPOUND: CO[C@H]1C[C@@H]2C[C@H](O)CC(CC(=O)O[C@@H](C=CCC(C)C)C[C@@H]3CC[C@H](C)[C@@H](C1)O3)O2
CAT: False
//
COMPOUND: O=C1C[C@@H](O)[C@@H](O)[C@@H]2[C@@H]3C(=O)N(C4CCCCC4)C(=O)[C@@H]3CC[C@@H]12
CAT: True
//
COMPOUND: CCOC(=O)[C@H](CC(C)C)NC(=O)CCC1CC(OC(=O)NCc2ccc3c(c2)OCO3)CC2(CCCC(COC(=O)NCCOC)O2)O1 (stereo not given in full)
CAT: True
//
COMPOUND: CC(=O)OC[C@H]1O[C@@H](ON=C(C)C)[C@H](OC(C)=O)[C@@H](OC(C)=O)[C@@H]1OC(C)=O
CAT: True
//
COMPOUND: CC(C)(C)N1C(=O)[C@H]2[C@H]3[C@H](O)[C@H](O)CC(=NOC[C@@H](O)COCc4ccco4)[C@@H]3CC[C@H]2C1=O
CAT: True
//
COMPOUND: COC(=O)[C@@H]1CC[C@H](C)[C@@H](c2ccc(Br)cc2)N1C[C@H](O)CN=[N+]=[N-]
CAT: False
//
COMPOUND: CCN1C(=O)[C@H]2[C@H]3[C@H](O)[C@H](O)CC(=NO[C@@H](C)c4cc(-c5c(C)cc(C)cc5C)no4)[C@@H]3CC[C@H]2C1=O
CAT: False
//
COMPOUND: CC(=O)OC[C@H]1O[C@H](CCON=C(C)C)C=C[C@@H]1OC(C)=O
CAT: True
//
COMPOUND: CC(CCC(=O)OC[C@H]1O[C@H](C#Cc2ccccc2)C=C[C@@H]1Oc1ccc(C)cc1)=NOC(C)CN1CCCCc2nc(C)c(C)cc21 (stereo not given in full)
CAT: False
//
COMPOUND: COC(=O)[C@@H]1CC[C@H](C)[C@@H](c2ccc(Br)cc2)N1C[C@@H](O)CN=[N+]=[N-]
CAT: False
//
COMPOUND: CC(C)CON=C1C[C@@H](O)[C@@H](O)[C@@H]2[C@@H]3C(=O)N([C@@H](C)c4ccccc4)C(=O)[C@@H]3CC[C@@H]12
CAT: True
